- MEASUREMENT_NOTES: Drug uptake in C57BL/6 mouse blood at 6 umol/kg, po dosed in carboxymethyl cellulose 0.5% w/v in water/Tween 80 (99.5/0.5, v/v) measured 1 hr post dosing by LC/MS/MS analysis
- Format: ADME, organism-based
- CONDITION_PARAMETERS: read-out: Drug uptake
REPORTED_ENDPOINT: concentration at 1 h

> print(dat)
                    structure.smiles.string     reported.endpoint  observed.result
1  CC(C)(C)c1cccc(CN[C@H]2CS(=O)(=O)C[C@@H](Cc3cc(F)c(N)c(OCC(F)(F)F)c3)[C@@H]2O)c1  concentration at 1 h            30 nM
